Assay summary: Half life in hamster plasma at 2 uM by LC-MS/MS analysis
Assay type: ADME, cell-free
Condition description: cricetinae
Experimental readout: half-life at 2 µM (h)

- Molecule: "CCOC(=O)C(C)(C)NP(=O)(OC[C@H]1O[C@@H](c2cnc3c(N)ncnn23)[C@](C)(F)[C@@H]1O)Oc1ccccc1 (some centres not stated)"
  half-life at 2 µM / h: 8.3
- Molecule: "CCOC(=O)C1(NP(=O)(OC[C@H]2O[C@@H](c3cnc4c(N)ncnn34)[C@](C)(F)[C@@H]2O)Oc2ccccc2)CCC1 (some centres not stated)"
  half-life at 2 µM / h: 7
- Molecule: "CCOC(=O)[C@@H](C)NP(=O)(OC[C@H]1O[C@@H](c2cnc3c(N)ncnn23)[C@](C)(F)[C@@H]1O)Oc1ccccc1 (some centres not stated)"
  half-life at 2 µM / h: 5.27

A: CC(C)OC(=O)C(C)(C)NP(=O)(OC[C@H]1O[C@@H](c2ccc3c(N)ncnn23)[C@](C)(F)[C@@H]1O)Oc1ccccc1 (some centres not stated)
B: CC(C)OC(=O)[C@@H](C)NP(=O)(OC[C@H]1O[C@@H](c2cnc3c(N)ncnn23)[C@](C)(F)[C@@H]1O)Oc1ccccc1 (some centres not stated)
Incoming: Of the two listed items, which has the higher half-life at 2 µM? First: A Second: B Could you answer with the label of the item you picked?
Outgoing: B
(B: 11.2 h, A: 2.07 h)

* * *

Assay summary: Hepatic extraction in hamster liver S9 fractions at 2 uM by LC-MS/MS analysis
Type: ADME
Condition description: cricetinae, liver S9 fractions; read-out: ERH
Experimental readout: hepatic extraction ratio at 2 µM

- Compound: "CCOC(=O)C(C)(C)NP(=O)(OC[C@H]1O[C@@H](c2cnc3c(N)ncnn23)[C@](C)(F)[C@@H]1O)Oc1ccccc1 (stereo partly drawn)"
  Experimental readout: "hepatic extraction ratio at 2 µM"
  Value reported: 0.83
- Compound: "CCOC(=O)C1(NP(=O)(OC[C@H]2O[C@@H](c3cnc4c(N)ncnn34)[C@](C)(F)[C@@H]2O)Oc2ccccc2)CCC1 (stereo partly drawn)"
  Experimental readout: "hepatic extraction ratio at 2 µM"
  Value reported: 0.91
- Compound: "CC(C)OC(=O)C(C)(C)NP(=O)(OC[C@H]1O[C@@H](c2ccc3c(N)ncnn23)[C@](C)(F)[C@@H]1O)Oc1ccccc1 (stereo partly drawn)"
  Experimental readout: "hepatic extraction ratio at 2 µM"
  Value reported: 0.86
- Compound: "CCOC(=O)[C@H](C)NP(=O)(OC[C@H]1O[C@@H](c2cnc3c(N)ncnn23)[C@](C)(F)[C@@H]1O)Oc1ccccc1 (stereo partly drawn)"
  Experimental readout: "hepatic extraction ratio at 2 µM"
  Value reported: 0.76
- Compound: "CC(C)OC(=O)C1(NP(=O)(OC[C@H]2O[C@@H](c3cnc4c(N)ncnn34)[C@](C)(F)[C@@H]2O)Oc2ccccc2)CCC1 (stereo in doubt; 37)"
  Experimental readout: "hepatic extraction ratio at 2 µM"
  Value reported: 0.93
- Compound: "CC(C)OC(=O)[C@H](C)N[P@](=O)(OC[C@H]1O[C@@H](c2cnc3c(N)ncnn23)[C@](C)(F)[C@@H]1O)Oc1ccccc1"
  Experimental readout: "hepatic extraction ratio at 2 µM"
  Value reported: 0.97
- Compound: "CCOC(=O)[C@@H](C)NP(=O)(OC[C@H]1O[C@@H](c2cnc3c(N)ncnn23)[C@](C)(F)[C@@H]1O)Oc1ccccc1 (stereo partly drawn)"
  Experimental readout: "hepatic extraction ratio at 2 µM"
  Value reported: 0.84
- Compound: "CC(C)OC(=O)[C@@H](C)NP(=O)(OC[C@H]1O[C@@H](c2cnc3c(N)ncnn23)[C@](C)(F)[C@@H]1O)Oc1ccccc1 (stereo partly drawn)"
  Experimental readout: "hepatic extraction ratio at 2 µM"
  Value reported: 0.85
